System under test: Ephrin type-B receptor 4 (Homo sapiens)
Sequence (P54760 whole entry): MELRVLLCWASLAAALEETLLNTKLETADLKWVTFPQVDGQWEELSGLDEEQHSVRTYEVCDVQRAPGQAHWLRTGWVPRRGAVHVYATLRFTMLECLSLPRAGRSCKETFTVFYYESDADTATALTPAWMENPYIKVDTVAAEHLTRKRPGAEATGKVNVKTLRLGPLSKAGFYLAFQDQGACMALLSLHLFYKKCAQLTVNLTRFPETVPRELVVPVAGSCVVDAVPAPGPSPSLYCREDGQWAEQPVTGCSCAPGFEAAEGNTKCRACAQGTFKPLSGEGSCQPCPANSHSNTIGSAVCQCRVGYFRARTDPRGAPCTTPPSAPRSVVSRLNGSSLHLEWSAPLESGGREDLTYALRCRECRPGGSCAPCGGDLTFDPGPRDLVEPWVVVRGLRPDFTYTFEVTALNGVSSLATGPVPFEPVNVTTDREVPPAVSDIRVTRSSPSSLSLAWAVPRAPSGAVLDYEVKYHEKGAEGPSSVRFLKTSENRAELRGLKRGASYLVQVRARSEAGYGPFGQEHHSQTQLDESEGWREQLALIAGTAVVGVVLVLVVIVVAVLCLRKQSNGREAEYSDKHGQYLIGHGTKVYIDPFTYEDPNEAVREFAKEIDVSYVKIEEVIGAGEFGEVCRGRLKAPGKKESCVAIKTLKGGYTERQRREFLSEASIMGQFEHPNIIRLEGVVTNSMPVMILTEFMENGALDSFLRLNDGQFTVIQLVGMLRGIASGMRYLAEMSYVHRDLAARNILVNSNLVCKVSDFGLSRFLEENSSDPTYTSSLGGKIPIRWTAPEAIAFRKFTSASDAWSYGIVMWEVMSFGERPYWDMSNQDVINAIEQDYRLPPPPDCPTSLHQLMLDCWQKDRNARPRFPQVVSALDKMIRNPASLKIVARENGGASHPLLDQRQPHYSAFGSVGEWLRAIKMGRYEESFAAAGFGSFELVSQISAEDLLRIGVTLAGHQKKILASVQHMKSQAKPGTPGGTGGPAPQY
Experiment notes: Inhibition of recombinant EPHB4
Condition details: read-out: IC50 (converted)
Binary label based on IC50 with cut-off 20 µM: below gives true (1), not below gives false (0).

| Input smiles | Classification |
| --- | --- |
| Cc1cc(O)cc2oc(=O)c3c(O)cc(OS(=O)(=O)O)cc3c12 | true (1) |
| O=C1C[C@H](O)[C@@H]2c3c(ccc(O)c31)-c1ccc(O)c3c1[C@@]2(O)CCC3=O | false (0) |
| COc1cc(O)c(C(=O)O)c(-c2cc(O)c(O)cc2C)c1 | false (0) |
| Cc1cc(O)c(O)cc1-c1cc(O)cc(O)c1C(=O)O | false (0) |
| COc1cc(O)c2c(=O)oc3c(O)c(O)cc(C)c3c2c1 | true (1) |
| COc1cc(O)c2c(=O)oc3cc(O)cc(C)c3c2c1 | true (1) |
